Test: Oral bioavailability in rat at 10 mg/kg
Format: ADME, organism-based
Settings: in vivo
Measurement type: bioavailability (%)
Report as a plain number; the unit % is understood.

Identify the reported bioavailability for the following entry. `CCc1ccccc1NC(=O)N1C[C@@H](C)Oc2cc(-c3ccc([C@H]4CC[C@H](CC(=O)O)CC4)cc3)ccc21`
75

* * *

Test: Inhibition of neuropeptide Y receptor (unknown origin)
Design: species or system Homo sapiens
pIC50: −log10 of the molar value.
Measurement type: pIC50

Identify the reported pIC50 for the following entry. `CCc1ccccc1NC(=O)N1C[C@@H](C)Oc2cc(-c3ccc([C@H]4CC[C@H](CC(=O)O)CC4)cc3)ccc21`
< 5.00
